Hello, the source for this data is the OligoGym collection, in case you need it.

Target Desc: MTFP1
Experiment: pooled miR-30 sensor sort-seq; sequence = guide strand; also: reference of the scale not given here
Condition: shRNA
Please use True whenever sensor-assay potency score (higher = more potent) is not below -0.8, and False whenever it is.

{"Polymer Sequence": "TTGGACACCAGGGAGCCAGGTG", "Class Label": "False"}
{"Polymer Sequence": "TATCGCACCCACGTGTCCCGGT", "Class Label": "True"}
{"Polymer Sequence": "TAGCTCAGCCACACCACCGCCG", "Class Label": "False"}
{"Polymer Sequence": "TGTCTCTAAGCTTCTGTCCAGC", "Class Label": "True"}
{"Polymer Sequence": "TTGTCTCTAAGCTTCTGTCCAG", "Class Label": "True"}
{"Polymer Sequence": "TGTTGGGTAGAGCTTGCGCAGG", "Class Label": "False"}
{"Polymer Sequence": "TCCGCCAGCACGTAGGAGCTGG", "Class Label": "False"}

Query sequence follows.
Inquiry: Does the sequence TAGGAGGTTGACATGAAGCAGG have recorded sensor-assay potency score (higher = more potent) that is -0.8 or more?
Reply text: False

====

Here, each record is paired with measured sensor-assay potency score (higher = more potent) data.
Target Desc: TNIP2
Experiment: pooled miR-30 sensor sort-seq; sequence = guide strand
Condition: shRNA
Please respond with just the number, no unit label.

Observe how each entry below is paired with its result.
{"Polymer Sequence": "TTCTTCTAGTCGCTCAGTCAGC", "Obs Value": -0.848}
{"Polymer Sequence": "TATTCCATAGAACAGGATGGGG", "Obs Value": -0.938}
{"Polymer Sequence": "TTGCTCGTCACTGAAGCACTGC", "Obs Value": 0.0739}
{"Polymer Sequence": "TTTATTTTCTCTTCCAACTGTC", "Obs Value": 0.553}

Recorded result, TTGAATCCTACTTTGAGCCCGT , sensor-assay potency score (higher = more potent): 0.603

Data point: TTTTCTCTTCCAACTGTCTGTT ; sensor-assay potency score (higher = more potent) = -0.371

For this sequence ( TCCAACTGTCTGTTGAGCCGGG ), measured sensor-assay potency score (higher = more potent) is -0.18

====

Target Desc: POLR2B
Experiment: pooled miR-30 sensor sort-seq; sequence = guide strand
Condition: shRNA
Property: sensor-assay potency score (higher = more potent); scope: individual sequences
// print number alone

{"Polymer Sequence": "TTTTACAAAATTTATATCCTTC", "Obs Value": 0.417}
{"Polymer Sequence": "TATCAAACCATCATCATCCAGC", "Obs Value": -0.225}
{"Polymer Sequence": "TAAAAGATTAGAAATCTTCTGC", "Obs Value": 0.528}
{"Polymer Sequence": "TTCTAAAATATCTCTGTCGGAC", "Obs Value": -0.797}
{"Polymer Sequence": "TTTCTCTTTAGTAACACCAGGC", "Obs Value": -0.352}

Observed sensor-assay potency score (higher = more potent) on POLR2B, entry TATTATGCAACTGTCTTGGTTT , equals -0.109

====

Reported sensor-assay potency score (higher = more potent) values for the following sequences.
Target Desc: DSPP
Experiment: pooled miR-30 sensor sort-seq; sequence = guide strand
Condition: shRNA
// return a plain number; no unit text

{"Polymer Sequence": "TCTATCACCTTCATGCACCAGG", "Obs Value": 0.183}
{"Polymer Sequence": "TACTATCTGAATTTTGACCTAT", "Obs Value": 0.43}
{"Polymer Sequence": "TTTGCTTTCTCTATGGTTGAGC", "Obs Value": 0.0105}
{"Polymer Sequence": "TTTCTCTTGCTGTTGATCTGAG", "Obs Value": -0.329}
{"Polymer Sequence": "TTCTCTATGGTTGAGCTTCTGG", "Obs Value": -0.413}

For record TTTATCCTCTTTACCTTCGTTG the listed sensor-assay potency score (higher = more potent) is -0.331

Entry TATTCTTATCAGTATTTCCATT , sensor-assay potency score (higher = more potent) reported as -0.803

The recorded sensor-assay potency score (higher = more potent) for TATGTTGACAACCTCTCCTTGT is 0.37

sensor-assay potency score (higher = more potent) in this record for TGTACTGACACATTTGATCTTG : 0.307

Measured sensor-assay potency score (higher = more potent), TTCACTGCTATCACTGCTGTTG : -0.29

What the record says about TTGGACAACAGCGACATCCTCA : sensor-assay potency score (higher = more potent) is 0.0891

====

Target Desc: DHPS
Experiment: pooled miR-30 sensor sort-seq; sequence = guide strand
Condition: shRNA
Parameter threshold = -0.2. Response is satisfied when sensor-assay potency score (higher = more potent) meets or exceeds it, else not satisfied.

{"Polymer Sequence": "ATTGACTTGCTGTACAGCGCGC", "Class Label": "not satisfied"}
{"Polymer Sequence": "TAATACACGGACTCTGGGTTGT", "Class Label": "satisfied"}

Inquiry: Confirm if sensor-assay potency score (higher = more potent) reported for the sequence TACGTCCACCATGTTGTGCTGC is -0.2 or above.
Reply text: not satisfied

Inquiry: // inclusive: sensor-assay potency score (higher = more potent) at least -0.2? input: TAGCTGACCAAAAAGTAGGGGA
Reply text: satisfied

Inquiry: Decide: sensor-assay potency score (higher = more potent) of TTGGTTGCTTGGAAGCCGGTGG >= -0.2?
Reply text: not satisfied

====

Target Desc: PSMC1
Experiment: pooled miR-30 sensor sort-seq; sequence = guide strand
Condition: shRNA
Property Label: sensor-assay potency score (higher = more potent)
Number, no unit, nothing else.

Here is how some sequences turned out for sensor-assay potency score (higher = more potent).
{"Polymer Sequence": "TTGTGGTTGAGCAGGACCGAGC", "Obs Value": -1.36}
{"Polymer Sequence": "TAATGGTTTCATTTGTTCCTGA", "Obs Value": -0.172}
{"Polymer Sequence": "TTTCTTGTCCTTGTCATCCTTC", "Obs Value": 0.111}

sequence TTGAGCAGGACCGAGCAGCCAG , sensor-assay potency score (higher = more potent) observed: -1.07

Just so you know, measured sensor-assay potency score (higher = more potent) for TTGTCCTTGTCATCCTTCTTGC came out at -0.829

// TAATTCTCTCTAACTTCAGTAA : sensor-assay potency score (higher = more potent) value = -0.505

sensor-assay potency score (higher = more potent) measured on AATATCTGCATAGGTCTCCTGG = -0.497

====

Target Desc: PREB
Experiment: pooled miR-30 sensor sort-seq; sequence = guide strand
Condition: shRNA
Tag: met if measured sensor-assay potency score (higher = more potent) is not below -0.6, not met if it is.

{"Polymer Sequence": "TTGAACTCCAGAACCTTCTCCA", "Class Label": "met"}
{"Polymer Sequence": "TTGTGGGGAATTTGCACTGTGA", "Class Label": "met"}

Inquiry: Has TTCTTTATGCCTGTCTTGGCGG a recorded sensor-assay potency score (higher = more potent) greater than or equal to -0.6?
Reply text: not met

Inquiry: Would you say TTCACTGACATCGAGGCAGGAG shows sensor-assay potency score (higher = more potent) at minimum -0.6?
Reply text: met

Inquiry: Hi team, for TAAGGGTAGACTACCTAGGAAC , is the recorded sensor-assay potency score (higher = more potent) at or above -0.6?
Reply text: not met

Inquiry: // inclusive: sensor-assay potency score (higher = more potent) at least -0.6? input: TAAAGTCTGTCTGCACCGCCTG
Reply text: not met

Inquiry: sensor-assay potency score (higher = more potent) >= -0.6 for TTCTGCAGTGGATCGGAGCTAA ?
Reply text: met

Inquiry: Is sensor-assay potency score (higher = more potent) for TTGATGTGCCTGGAAGCGCAGG at or above -0.6?
Reply text: not met

====

Recorded sensor-assay potency score (higher = more potent) values for a group of sequences are listed next.
Target Desc: ICAM4
Experiment: pooled miR-30 sensor sort-seq; sequence = guide strand
Condition: shRNA
Field format: numeric only.

{"Polymer Sequence": "TTGTAGGCGGTGATCCTGGAGG", "Target Desc": "ICAM4", "Obs Value": -1.08}
{"Polymer Sequence": "TGCACAGCCACGAACTCCGGGC", "Target Desc": "ICAM4", "Obs Value": -1.29}
{"Polymer Sequence": "TAGCCCACCGGGAACACTGTAG", "Target Desc": "ICAM4", "Obs Value": -0.579}
{"Polymer Sequence": "TTGAGCTGCACTGACTTCCCCG", "Target Desc": "ICAM4", "Obs Value": 0.304}
{"Polymer Sequence": "TAGCTAGGCACTTGCATAGGTA", "Target Desc": "ICAM4", "Obs Value": -0.927}

Record for TTCATAGCTAGGCACTTGCATA under target or system ICAM4: sensor-assay potency score (higher = more potent) reported as -1.17

Recorded sensor-assay potency score (higher = more potent) for TTTGTAGGCGGTGATCCTGGAG on ICAM4 was -0.0996

Per the reported ICAM4 data, TCGTAGGTCAAGGTCACGTTGG has sensor-assay potency score (higher = more potent) of -0.884
